- System: 415267-285-R-J2-PDC complex spheroid viability;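 note: luminescence used as stand-in measure of viable cells; spheroids exposed to compounds for one week before readout; 100% = DMSO vehicle control viability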
- experiment notes: Anticancer human tumor 415267-285-R-J2-PDC patient-derived breast carcinoma cell line growth inhibition [POLQ]
- experimental parameters: second compound 0.316 µM; first compound 0.0316 µM; active compounds read low
measured attribute: viability, T/C (%)

[[record]]
compound = "CNCc1ccc(-c2[nH]c3cc(F)cc4c3c2CCNC4=O)cc1 + Cc1cccc(N(C)C(=O)C2C(O)CCN2c2nc(C)cc(C(F)(F)F)c2C#N)c1"
measured_attribute = "viability, T/C"
result_number = 97.5

[[record]]
compound = "Nc1ccn(C2OC(CO)C(O)C2(F)F)c(=O)n1 (stereo unspecified) + Nc1ccc(C#CCN(C(=O)Cc2ncc(C(F)(F)F)cc2C(F)(F)F)c2ccc(F)cc2)nn1"
measured_attribute = "viability, T/C"
result_number = 42.2

[[record]]
compound = "COc1cc2cc(C(=O)CCC(=O)O)sc2cc1OC + COC1C(OC(N)=O)C(O)C(Oc2ccc3c(O)c(NC(=O)c4ccc(O)c(CC=C(C)C)c4)c(=O)oc3c2C)OC1(C)C"
measured_attribute = "viability, T/C"
result_number = 107

[[record]]
compound = "COc1cccc2c1C(=O)c1c(O)c3c(c(O)c1C2=O)CC(O)(C(=O)CO)CC3OC1CC(N)C(O)C(C)O1 (stereo unspecified) + COC1C(OC(N)=O)C(O)C(Oc2ccc3c(O)c(NC(=O)c4ccc(O)c(CC=C(C)C)c4)c(=O)oc3c2C)OC1(C)C"
measured_attribute = "viability, T/C"
result_number = 54.2

[[record]]
compound = "COc1cc2cc(C(=O)CCC(=O)O)sc2cc1OC + Cc1cccc(N(C)C(=O)C2C(O)CCN2c2nc(C)cc(C(F)(F)F)c2C#N)c1"
measured_attribute = "viability, T/C"
result_number = 99.7

[[record]]
compound = "CC1COCCN1c1cc(C2(S(C)(=N)=O)CC2)nc(-c2ccnc3[nH]ccc23)n1 (stereo unspecified) + Nc1ccc(C#CCN(C(=O)Cc2ncc(C(F)(F)F)cc2C(F)(F)F)c2ccc(F)cc2)nn1"
measured_attribute = "viability, T/C"
result_number = 104

[[record]]
compound = "CC1COCCN1c1cc(C2(S(C)(=N)=O)CC2)nc(-c2ccnc3[nH]ccc23)n1 (stereo unspecified) + COC1C(OC(N)=O)C(O)C(Oc2ccc3c(O)c(NC(=O)c4ccc(O)c(CC=C(C)C)c4)c(=O)oc3c2C)OC1(C)C"
measured_attribute = "viability, T/C"
result_number = 95.4

[[record]]
compound = "C=CCn1c(=O)c2cnc(Nc3ccc(N4CCN(C)CC4)cc3)nc2n1-c1cccc(C(C)(C)O)n1 + Nc1ccc(C#CCN(C(=O)Cc2ncc(C(F)(F)F)cc2C(F)(F)F)c2ccc(F)cc2)nn1"
measured_attribute = "viability, T/C"
result_number = 86.9

[[record]]
compound = "CCc1cc2c(N3CCc4c(cc(Cn5ccnc5)cc4-c4cn(C)nc4C(F)(F)F)C3=O)cc(C)nc2c(OC)n1 + Nc1ccc(C#CCN(C(=O)Cc2ncc(C(F)(F)F)cc2C(F)(F)F)c2ccc(F)cc2)nn1"
measured_attribute = "viability, T/C"
result_number = 91.7

[[record]]
compound = "COc1ccc([C@@H](O)c2cc(-c3ncnc4cc(N5CCOCC5)ccc34)c(F)cc2Cl)nn1 + Nc1ccc(C#CCN(C(=O)Cc2ncc(C(F)(F)F)cc2C(F)(F)F)c2ccc(F)cc2)nn1"
measured_attribute = "viability, T/C"
result_number = 107

[[record]]
compound = "CC1COCCN1c1cc(C2(O)CC3CCC(C2)O3)c2cnn(-c3ccn[nH]3)c2n1 (stereo unspecified) + Nc1ccc(C#CCN(C(=O)Cc2ncc(C(F)(F)F)cc2C(F)(F)F)c2ccc(F)cc2)nn1"
measured_attribute = "viability, T/C"
result_number = 22.7

[[record]]
compound = "COc1cc(C2c3cc4c(cc3C(OC3OC5COC(C)OC5C(O)C3O)C3COC(=O)C23)OCO4)cc(OC)c1O (stereo unspecified) + COC1C(OC(N)=O)C(O)C(Oc2ccc3c(O)c(NC(=O)c4ccc(O)c(CC=C(C)C)c4)c(=O)oc3c2C)OC1(C)C"
measured_attribute = "viability, T/C"
result_number = 97.7

[[record]]
compound = "CCCS(=O)(=O)Nc1ccc(F)c(C(=O)c2c[nH]c3ncc(-c4ccc(Cl)cc4)cc23)c1F + COC1C(OC(N)=O)C(O)C(Oc2ccc3c(O)c(NC(=O)c4ccc(O)c(CC=C(C)C)c4)c(=O)oc3c2C)OC1(C)C"
measured_attribute = "viability, T/C"
result_number = 101

[[record]]
compound = "CC1COCCN1c1cc(C2(S(C)(=N)=O)CC2)nc(-c2ccnc3[nH]ccc23)n1 (stereo unspecified) + Cc1cccc(N(C)C(=O)C2C(O)CCN2c2nc(C)cc(C(F)(F)F)c2C#N)c1"
measured_attribute = "viability, T/C"
result_number = 102

[[record]]
compound = "COc1ccc([C@@H](O)c2cc(-c3ncnc4cc(N5CCOCC5)ccc34)c(F)cc2Cl)nn1 + COC1C(OC(N)=O)C(O)C(Oc2ccc3c(O)c(NC(=O)c4ccc(O)c(CC=C(C)C)c4)c(=O)oc3c2C)OC1(C)C"
measured_attribute = "viability, T/C"
result_number = 101

[[record]]
compound = "COc1cc(C2c3cc4c(cc3C(OC3OC5COC(C)OC5C(O)C3O)C3COC(=O)C23)OCO4)cc(OC)c1O (stereo unspecified) + Nc1ccc(C#CCN(C(=O)Cc2ncc(C(F)(F)F)cc2C(F)(F)F)c2ccc(F)cc2)nn1"
measured_attribute = "viability, T/C"
result_number = 107

[[record]]
compound = "CNCc1ccc(-c2[nH]c3cc(F)cc4c3c2CCNC4=O)cc1 + COC1C(OC(N)=O)C(O)C(Oc2ccc3c(O)c(NC(=O)c4ccc(O)c(CC=C(C)C)c4)c(=O)oc3c2C)OC1(C)C"
measured_attribute = "viability, T/C"
result_number = 95.7

[[record]]
compound = "COc1cccc(OCCCN)c1-c1cc(Nc2cnc(C#N)cn2)n[nH]1 + Nc1ccc(C#CCN(C(=O)Cc2ncc(C(F)(F)F)cc2C(F)(F)F)c2ccc(F)cc2)nn1"
measured_attribute = "viability, T/C"
result_number = 5.29

[[record]]
compound = "C=CCn1c(=O)c2cnc(Nc3ccc(N4CCN(C)CC4)cc3)nc2n1-c1cccc(C(C)(C)O)n1 + Cc1cccc(N(C)C(=O)C2C(O)CCN2c2nc(C)cc(C(F)(F)F)c2C#N)c1"
measured_attribute = "viability, T/C"
result_number = 109

[[record]]
compound = "COc1ccc([C@@H](O)c2cc(-c3ncnc4cc(N5CCOCC5)ccc34)c(F)cc2Cl)nn1 + Cc1cccc(N(C)C(=O)C2C(O)CCN2c2nc(C)cc(C(F)(F)F)c2C#N)c1"
measured_attribute = "viability, T/C"
result_number = 99.3

[[record]]
compound = "O=C(Nc1ccc(O)c(NS(=O)(=O)c2ccc(F)cc2)c1)c1ccc(-c2ccccc2)cc1 + Nc1ccc(C#CCN(C(=O)Cc2ncc(C(F)(F)F)cc2C(F)(F)F)c2ccc(F)cc2)nn1"
measured_attribute = "viability, T/C"
result_number = 105

